target: human JAK2 (Homo sapiens); construct: catalytic domain (amino acids 808-1132; catalog number PV4210); GST; assay: JAK2 inhibition assay (polyGT substrate / Ulight-JAK1 peptide); conditions: recombinant human JAK2 catalytic domain; polyGT or Ulight-JAK1 peptide assay
Sequence (O60674 808-1132): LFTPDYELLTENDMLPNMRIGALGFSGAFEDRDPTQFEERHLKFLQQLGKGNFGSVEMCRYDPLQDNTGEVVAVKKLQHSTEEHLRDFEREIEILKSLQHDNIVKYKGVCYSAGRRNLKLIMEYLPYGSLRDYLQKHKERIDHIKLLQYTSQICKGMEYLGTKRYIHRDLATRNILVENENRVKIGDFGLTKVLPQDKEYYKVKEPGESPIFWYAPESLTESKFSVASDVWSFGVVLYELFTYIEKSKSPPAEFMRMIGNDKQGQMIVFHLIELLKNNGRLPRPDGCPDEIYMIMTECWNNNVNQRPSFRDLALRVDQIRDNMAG
Entries and their IC50 values follow.

The cases that follow already have their IC50 on record.
>  <Compound>
CCc1cc(C2CN(S(C)(=O)=O)C2)ncc1N(C)c1cc2c(cn1)ncn2C

>  <IC50>
101 to 500 nM

$$$$
>  <Compound>
CCc1cc(-c2ccc(CNC(=O)OC(C)(C)C)s2)ncc1N(C)c1cc2c(cn1)ncn2C

>  <IC50>
101 to 500 nM

$$$$
>  <Compound>
CCc1cc(CNS(=O)(=O)N2CC(F)(F)C2)ccc1N(C)c1cc2c(cn1)ncn2C

>  <IC50>
0.01 to 100 nM

$$$$

Q: So what's the measured IC50 for this one? CCc1cc(C2(COS(=O)(=O)C(F)F)CCNC2)ccc1N(C)c1cc2c(cn1)ncn2C (stereo not drawn)
A: 0.01 to 100 nM

Q: So what's the measured IC50 for this one? `CCc1cc(-c2ccc(Cl)s2)ncc1N(C)c1cc2c(cn1)ncn2C`
A: 0.01 to 100 nM

Q: So what's the measured IC50 for this one? CCc1cc(C(C#N)N2CCC(C#N)C2)ccc1N(C)c1cc2c(cn1)ncn2C (stereo not drawn)
A: 0.01 to 100 nM

Q: So what's the measured IC50 for this one? `Cc1ccccc1N(C)c1cc2c(cn1)ncn2C`
A: > 1000 nM

Q: So what's the measured IC50 for this one? `Cc1c(Oc2ccc(C#N)nc2)cccc1N(C)c1cc2c(cn1)ncn2C`
A: > 1000 nM
